Molecular target: T-type calcium channels (α1G) (Homo sapiens, UniProt O43497)
Construct: expressed in transfected cells
Sequence (O43497 whole entry): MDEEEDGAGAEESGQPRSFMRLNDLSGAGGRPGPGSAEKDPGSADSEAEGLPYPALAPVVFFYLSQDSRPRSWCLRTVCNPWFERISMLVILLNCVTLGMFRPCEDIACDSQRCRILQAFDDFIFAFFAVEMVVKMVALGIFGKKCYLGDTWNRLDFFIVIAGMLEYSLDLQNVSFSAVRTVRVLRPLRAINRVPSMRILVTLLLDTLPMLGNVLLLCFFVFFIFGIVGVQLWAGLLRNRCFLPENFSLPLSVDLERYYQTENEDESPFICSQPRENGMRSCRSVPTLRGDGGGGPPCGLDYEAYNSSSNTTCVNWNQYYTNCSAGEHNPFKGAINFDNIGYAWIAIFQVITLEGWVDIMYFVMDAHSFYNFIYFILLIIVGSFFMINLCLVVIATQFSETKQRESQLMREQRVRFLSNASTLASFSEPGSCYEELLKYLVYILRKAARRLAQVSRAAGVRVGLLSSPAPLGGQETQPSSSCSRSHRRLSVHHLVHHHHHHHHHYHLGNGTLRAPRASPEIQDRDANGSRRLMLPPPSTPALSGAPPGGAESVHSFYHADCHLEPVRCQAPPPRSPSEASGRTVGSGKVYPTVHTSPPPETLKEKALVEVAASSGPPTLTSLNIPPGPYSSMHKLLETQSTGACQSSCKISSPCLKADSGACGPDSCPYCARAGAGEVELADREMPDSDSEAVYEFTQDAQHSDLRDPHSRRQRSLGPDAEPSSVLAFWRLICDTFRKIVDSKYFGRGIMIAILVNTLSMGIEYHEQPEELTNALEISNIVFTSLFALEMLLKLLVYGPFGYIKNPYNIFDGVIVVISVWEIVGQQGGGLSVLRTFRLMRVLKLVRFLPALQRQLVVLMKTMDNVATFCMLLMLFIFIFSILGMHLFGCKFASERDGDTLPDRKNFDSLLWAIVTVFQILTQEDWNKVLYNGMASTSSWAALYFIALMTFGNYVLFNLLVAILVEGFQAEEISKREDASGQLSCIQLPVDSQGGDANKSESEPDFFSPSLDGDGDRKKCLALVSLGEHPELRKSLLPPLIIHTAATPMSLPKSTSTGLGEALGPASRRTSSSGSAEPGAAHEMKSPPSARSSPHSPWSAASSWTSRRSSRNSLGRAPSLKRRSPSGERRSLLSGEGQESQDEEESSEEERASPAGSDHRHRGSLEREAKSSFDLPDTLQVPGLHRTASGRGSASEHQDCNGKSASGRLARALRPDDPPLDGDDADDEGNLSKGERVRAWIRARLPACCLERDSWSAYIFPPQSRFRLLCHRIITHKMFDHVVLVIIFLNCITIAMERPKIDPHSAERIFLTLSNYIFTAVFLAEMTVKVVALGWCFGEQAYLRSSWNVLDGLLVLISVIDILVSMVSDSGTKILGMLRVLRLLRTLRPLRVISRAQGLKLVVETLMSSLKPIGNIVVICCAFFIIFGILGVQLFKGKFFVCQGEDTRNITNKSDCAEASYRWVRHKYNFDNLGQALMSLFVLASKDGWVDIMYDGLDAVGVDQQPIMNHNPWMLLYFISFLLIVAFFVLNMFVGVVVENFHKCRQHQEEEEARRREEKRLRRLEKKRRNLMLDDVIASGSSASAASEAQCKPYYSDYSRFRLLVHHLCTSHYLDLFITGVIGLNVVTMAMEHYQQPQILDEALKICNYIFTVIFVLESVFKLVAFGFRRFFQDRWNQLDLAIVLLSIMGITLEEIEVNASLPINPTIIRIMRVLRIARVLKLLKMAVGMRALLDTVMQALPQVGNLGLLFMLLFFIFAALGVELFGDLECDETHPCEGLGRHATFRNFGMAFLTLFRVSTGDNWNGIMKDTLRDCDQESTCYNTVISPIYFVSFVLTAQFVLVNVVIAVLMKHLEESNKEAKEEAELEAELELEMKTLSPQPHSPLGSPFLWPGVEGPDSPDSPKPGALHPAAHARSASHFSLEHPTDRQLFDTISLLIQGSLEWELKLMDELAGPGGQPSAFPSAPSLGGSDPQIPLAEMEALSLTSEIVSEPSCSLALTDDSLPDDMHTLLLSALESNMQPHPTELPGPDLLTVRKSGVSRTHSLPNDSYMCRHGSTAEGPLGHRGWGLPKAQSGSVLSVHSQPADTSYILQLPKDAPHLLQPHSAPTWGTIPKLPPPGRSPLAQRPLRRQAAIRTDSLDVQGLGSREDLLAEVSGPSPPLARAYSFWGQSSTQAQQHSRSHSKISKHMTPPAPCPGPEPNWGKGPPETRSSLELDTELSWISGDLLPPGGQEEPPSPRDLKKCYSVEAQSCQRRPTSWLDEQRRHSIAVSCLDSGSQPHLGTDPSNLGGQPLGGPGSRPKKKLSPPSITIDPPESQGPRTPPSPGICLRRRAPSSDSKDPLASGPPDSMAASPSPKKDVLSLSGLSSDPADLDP
Experiment: T-type calcium channel block, whole-cell voltage clamp in HEK293 cells
Assay type: cell-based
Conditions: 1 μM of comp'd; α1G stably expressed in HEK293 cells; step to −30 mV from holding potential −110 mV
quantity: % of calcium channels blocked (%)

Example entries begin here.
compound=CCCCCCCCCCCCCCCc1cccc(OC(C)C)c1C1C(C(=O)OC)=C(C)NC(C)=C1C(=O)OC quantity="% of calcium channels blocked" experimental_value=80
compound="CCCCCCCCCCCCCCCc1cccc(OCC)c1C1C(C(=O)OCC)=C(C)NC(C)=C1C(=O)OC(C)C (stereo not shown)" quantity="% of calcium channels blocked" experimental_value=77

1. COCC(=O)O[C@]1(CCN(C)CCCc2nc3ccccc3[nH]2)CCc2cc(F)ccc2[C@@H]1C(C)C
2. COC(=O)C1=C(C)NC(C)=C(C(=O)OC)C1c1ccccc1[N+](=O)[O-]
Inquiry: Between the two listed entries 1 and 2 , which has its % of calcium channels blocked at the higher number? Indicate which entry you chose by stating its label.
Reply text: 1
